Consider the following compounds and their measured IC50 readings.
Target: B-Raf (V600E) (Homo sapiens (Human), UniProt P15056, V600E)
Sequence (P15056 whole entry V600E): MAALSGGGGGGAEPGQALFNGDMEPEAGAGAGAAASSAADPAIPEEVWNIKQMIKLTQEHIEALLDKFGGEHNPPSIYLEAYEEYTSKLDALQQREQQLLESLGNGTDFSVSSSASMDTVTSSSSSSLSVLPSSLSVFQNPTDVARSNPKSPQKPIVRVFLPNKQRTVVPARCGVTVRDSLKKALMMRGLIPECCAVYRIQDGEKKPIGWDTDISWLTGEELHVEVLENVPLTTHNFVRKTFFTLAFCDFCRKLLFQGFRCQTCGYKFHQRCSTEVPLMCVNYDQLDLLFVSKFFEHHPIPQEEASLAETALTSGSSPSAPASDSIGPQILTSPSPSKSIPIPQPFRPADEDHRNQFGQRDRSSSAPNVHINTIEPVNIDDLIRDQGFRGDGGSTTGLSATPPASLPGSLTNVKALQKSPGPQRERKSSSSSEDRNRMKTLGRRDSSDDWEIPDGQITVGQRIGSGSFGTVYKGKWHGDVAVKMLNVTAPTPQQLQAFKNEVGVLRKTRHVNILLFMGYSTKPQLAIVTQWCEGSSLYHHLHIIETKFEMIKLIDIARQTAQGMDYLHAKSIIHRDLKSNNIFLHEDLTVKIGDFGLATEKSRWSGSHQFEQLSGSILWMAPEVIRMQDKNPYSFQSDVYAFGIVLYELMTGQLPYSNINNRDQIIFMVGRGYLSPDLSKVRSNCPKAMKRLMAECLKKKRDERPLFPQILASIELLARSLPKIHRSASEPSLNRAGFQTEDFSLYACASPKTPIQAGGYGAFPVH
Experiment: ActivX KiNativ A375 whole cell lysate assay
Type: binding
Settings: second B-Raf (V600E) column
State just the number; it will be interpreted in nM.

[[record]]
compound = "CNc1cc2nc(C)c(-c3cc(NC(=O)NCCC(C)(C)C)c(F)cc3F)cc2cn1 [Example 18]"
valuekind = "IC50"
reading = 37


Switching to the query record.
Find IC50 (B-Raf (V600E) (Homo sapiens (Human), UniProt P15056, V600E)) for the entry CNc1cc2nc(C)c(-c3cc(NC(=O)NCCC(C)(C)F)c(F)cc3C)cc2cn1 [Example 76] 22

* * *

Tested on: phospho-ERK in A375 (B-Raf V600E) xenograft
Test: A375 mouse xenograft pharmacodynamic assay (tumor pERK by ELISA)
Format: in vivo, mice
Details: A-375, 20 mg/kg oral, 2 h post dose, vs vehicle, read-out: Measured pERK inhibition 2 h post dose
Where a name gives a salt, the structure may show the parent alone.
valueKind: inhibition in vivo at 20 mg/kg (%)
Write it as a number; the unit % goes unstated.

[[record]]
compound = "CNc1cc2nc(C)c(-c3cc(NC(=O)NC[C@H](O)C(C)(C)C)c(F)cc3C)cc2cn1"
valuekind = "inhibition in vivo at 20 mg/kg"
reading = 96

[[record]]
compound = "CC(=O)Nc1cc2nc(C)c(-c3cc(NC(=O)NCCC(C)(C)C#N)c(F)cc3F)cc2cn1"
valuekind = "inhibition in vivo at 20 mg/kg"
reading = 55

[[record]]
compound = "CC(=O)Nc1cc2nc(C)c(-c3ccc(F)c(NC(=O)NCCC(C)(C)C)c3)cc2cn1"
valuekind = "inhibition in vivo at 20 mg/kg"
reading = 90

[[record]]
compound = "CNc1cc2nc(C)c(-c3cc(NC(=O)NC[C@@H](O)C(C)C)c(F)cc3C)cc2cn1"
valuekind = "inhibition in vivo at 20 mg/kg"
reading = 89

[[record]]
compound = "CNc1cc2nc(C)c(-c3cc(NC(=O)NC4CCC(F)(F)CC4)c(F)cc3C)cc2cn1 [Example 12, hydrochloride]"
valuekind = "inhibition in vivo at 20 mg/kg"
reading = 58

[[record]]
compound = "CNc1cc2nc(C)c(-c3cc(NC(=O)NCCC(C)(C)OC)c(F)cc3F)cc2cn1 [Example 24, hydrochloride]"
valuekind = "inhibition in vivo at 20 mg/kg"
reading = 45

[[record]]
compound = "CC(=O)Nc1cc2nc(C)c(-c3cc(NC(=O)NCCC(C)(C)C)c(F)cc3F)cc2cn1"
valuekind = "inhibition in vivo at 20 mg/kg"
reading = 87

[[record]]
compound = "CNc1cc2nc(C)c(-c3cc(NC(=O)NCCC(C)(C)C(F)(F)F)c(F)cc3C)cc2cn1 [Example 89, hydrochloride]"
valuekind = "inhibition in vivo at 20 mg/kg"
reading = 84


Find the recorded inhibition in vivo at 20 mg/kg belonging to `Cc1cc(F)c(NC(=O)NCCC(C)(C)F)cc1-c1cc2cnc(N)cc2nc1C` and report it. 87

* * *

Entries and their measured pIC50 follow.
System: A375res cells
Test: Proliferation assay in vemurafenib-resistant A375res melanoma cells
Details: Homo sapiens, 72 h, read-out: absolute IC50 values
pIC50: −log10 of the molar value. Where a name gives a salt, the structure may show the parent alone.

// below: answered molecules
[[record]]
molecule = "Cc1cc(F)c(NC(=O)NCCC(C)(C)F)cc1-c1cc2cnc(NC=O)cc2nc1C [Example 125, hydrochloride]"
valuekind = "pIC50"
reading = "6.30 to 8.05"

[[record]]
molecule = "CNc1cc2nc(C)c(-c3cc(NC(=O)N[C@H]4C[C@](C)(F)C4)c(F)cc3C)cc2cn1"
valuekind = "pIC50"
reading = "6.30 to 8.05"

[[record]]
molecule = "CNc1cc2nc(C)c(-c3cc(NC(=O)NCCC4(OC)CC4)c(F)cc3F)cc2cn1"
valuekind = "pIC50"
reading = "6.30 to 8.05"


With those in mind, consider the next molecule.
Any idea what its pIC50 is? The molecule is CNc1cc2nc(C)c(-c3cc(NC(=O)NCCCC(C)(C)F)c(F)cc3C)cc2cn1 [Example 101, hydrochloride] 6.30 to 8.05

* * *

Tested on: phospho-ERK in A375 (B-Raf V600E) xenograft
Assay: A375 mouse xenograft pharmacodynamic assay (tumor pERK by ELISA)
Assay type: in vivo, mice
Conditions: A-375, 20 mg/kg oral, 2 h post dose, vs vehicle, read-out: Measured pERK inhibition 2 h post dose
Counter-ions that a name gives are not always drawn.
Collected inhibition in vivo at 20 mg/kg values appear next to each entry.
Only the number, expressed in %, is required.

[[record]]
molecule = "CNc1cc2nc(C)c(-c3cc(NC(=O)NCCC(C)(C)C)c(F)cc3C)cc2cn1"
targetofassay = "phospho-ERK in A375 (B-Raf V600E) xenograft"
valuekind = "inhibition in vivo at 20 mg/kg"
reading = 89

[[record]]
molecule = "Cc1nc2cc(NCCO)ncc2cc1-c1cc(NC(=O)NCCC(C)(C)C)c(F)cc1F"
targetofassay = "phospho-ERK in A375 (B-Raf V600E) xenograft"
valuekind = "inhibition in vivo at 20 mg/kg"
reading = 50

[[record]]
molecule = "Cc1cc(F)c(NC(=O)NCCC(C)(C)C)cc1-c1cc2cnc(NCCO)cc2nc1C"
targetofassay = "phospho-ERK in A375 (B-Raf V600E) xenograft"
valuekind = "inhibition in vivo at 20 mg/kg"
reading = 79

[[record]]
molecule = "CNc1cc2nc(C)c(-c3cc(NC(=O)NC4CC(C)(C)C4)c(F)cc3F)cc2cn1 [Example 78, hydrochloride]"
targetofassay = "phospho-ERK in A375 (B-Raf V600E) xenograft"
valuekind = "inhibition in vivo at 20 mg/kg"
reading = 68

[[record]]
molecule = "CNc1cc2nc(C)c(-c3cc(NC(=O)NCCC(C)(C)C)c(F)cc3F)cc2cn1"
targetofassay = "phospho-ERK in A375 (B-Raf V600E) xenograft"
valuekind = "inhibition in vivo at 20 mg/kg"
reading = 93

[[record]]
molecule = "CNc1cc2nc(C)c(-c3cc(NC(=O)NCCC(C)(C)OC)c(F)cc3C)cc2cn1 [Example 92, hydrochloride]"
targetofassay = "phospho-ERK in A375 (B-Raf V600E) xenograft"
valuekind = "inhibition in vivo at 20 mg/kg"
reading = 77


Report inhibition in vivo at 20 mg/kg for `CNc1cc2nc(C)c(-c3cc(NC(=O)N[C@H]4C[C@](C)(F)C4)c(F)cc3C)cc2cn1` please. 96

I have this molecule here, `CNc1cc2nc(C)c(-c3cc(NC(=O)NCCC(C)(C)C#N)c(F)cc3C)cc2cn1` , and I need its recorded inhibition in vivo at 20 mg/kg. 78

* * *

Reported pIC50 values follow for various molecules
Target: C-Raf (Homo sapiens (Human), UniProt P04049)
Sequence (P04049 whole entry): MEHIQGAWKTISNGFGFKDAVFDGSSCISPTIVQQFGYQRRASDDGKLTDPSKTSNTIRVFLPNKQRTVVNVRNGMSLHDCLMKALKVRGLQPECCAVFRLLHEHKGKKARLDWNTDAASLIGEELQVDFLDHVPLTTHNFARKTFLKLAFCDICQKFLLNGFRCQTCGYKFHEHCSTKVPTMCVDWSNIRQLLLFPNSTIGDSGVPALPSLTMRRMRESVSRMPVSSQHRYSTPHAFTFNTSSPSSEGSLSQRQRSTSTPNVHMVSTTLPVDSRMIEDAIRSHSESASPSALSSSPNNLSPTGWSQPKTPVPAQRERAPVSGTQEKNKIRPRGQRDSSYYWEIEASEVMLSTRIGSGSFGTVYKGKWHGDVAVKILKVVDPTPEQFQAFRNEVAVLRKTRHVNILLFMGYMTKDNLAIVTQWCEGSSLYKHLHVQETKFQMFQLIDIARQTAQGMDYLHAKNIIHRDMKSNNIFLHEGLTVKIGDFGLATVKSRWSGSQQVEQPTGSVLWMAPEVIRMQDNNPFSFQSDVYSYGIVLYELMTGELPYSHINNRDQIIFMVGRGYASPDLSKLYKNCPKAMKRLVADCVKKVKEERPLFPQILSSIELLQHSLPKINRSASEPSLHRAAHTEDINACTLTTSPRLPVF
Assay: ActivX KiNativ A375 whole cell lysate assay
Format: binding
Note on pIC50: it is the negative log10 of concentration, concentration in mol/L.

[[record]]
molecule = "CNc1cc2nc(C)c(-c3cc(NC(=O)NCCC(C)(C)C)c(F)cc3F)cc2cn1 [Example 18]"
reading = 7.70


Below: the item to evaluate.
// map CNc1cc2nc(C)c(-c3cc(NC(=O)NCCC(C)(C)F)c(F)cc3C)cc2cn1 [Example 76] to recorded pIC50 (system: C-Raf (Homo sapiens (Human), UniProt P04049)) 6.77

* * *

Biological target: B-Raf (V600E) (Homo sapiens (Human), UniProt P15056, V600E)
Assay: ActivX KiNativ A375 whole cell lysate assay
Assay type: binding
Conditions: first B-Raf (V600E) column
Each entry below carries its reported IC50.
Quick reminder: number only, in nM, skip the unit.

[[record]]
structuresmiles = "CNc1cc2nc(C)c(-c3cc(NC(=O)NCCC(C)(C)F)c(F)cc3C)cc2cn1"
unitofmeasurement = "nM"
reading = 16


// next entry
Return reported IC50; argument: `CNc1cc2nc(C)c(-c3cc(NC(=O)NCCC(C)(C)C)c(F)cc3F)cc2cn1` 35

* * *

# key: entry, value: IC50
Test system: A-Raf, B-RafV600E and C-Raf
Test: ActivX KiNativ A375 whole cell lysate assay, summary over Raf isoforms
Type: binding, human
Conditions: A375 cells; summary of Table 1

[[record]]
structuresmiles = "CNc1cc2nc(C)c(-c3cc(NC(=O)NCCC(C)(C)F)c(F)cc3C)cc2cn1"
reading = "< 0.17 µM"


Bench note: what IC50 did `CNc1cc2nc(C)c(-c3cc(NC(=O)NCCC(C)(C)C)c(F)cc3F)cc2cn1` show? < 0.17 µM
